- Test system: Fibroblast
- Test Summary: Multiplex assay against human fibroblast
- Format: toxicity, cell-based
- Run Conditions: 24 h, 10 µM, compound concentration 10 uM, replicate 2
Attribute Measured: Population Hoechst High Intensity Objects (%)
The reply should be a number in %, with the unit left off.

In the examples that follow, each entry is paired with its recorded Population Hoechst High Intensity Objects (%).
# Compound, Units Of Measure, Endpoint Value
measured = [
    ("COc1cccc2c1c(NS(=O)(=O)c1ccc(Cl)s1)nn2Cc1cccc(CNC(=O)C(C)(C)O)c1", "%", 8),
    ("Cl.NCCc1ccc(O)c(O)c1 [DOPAMINE HYDROCHLORIDE]", "%", 3),
    ("Cc1sc2c(c1C)C(c1ccc(Cl)cc1)=N[C@@H](CC(=O)NCCCCCCCCNC(=O)COc1cccc3c1C(=O)N(C1CCC(=O)NC1=O)C3=O)c1nnc(C)n1-2 (stereo partly drawn)", "%", 12),
    ("Cc1onc(-c2ccccc2Cl)c1C(=O)N(C)c1ccc(Cl)cc1", "%", 4),
    ("Br.CS(=O)(=O)Nc1c(O)ccc2c1CCCC2C1=NCCN1 (stereo not drawn)", "%", 0),
    ("Cc1c(CC(=O)O)c2cccnc2n1Cc1ccc(S(C)(=O)=O)cc1C(F)(F)F [FEVIPIPRANT]", "%", 7),
    ("COC[C@@H](c1ccc(C(F)(F)F)cc1)N1CCN(C2(C)CCN(C(=O)c3c(C)ncnc3C)CC2)C[C@@H]1C.O=C(O)/C=C\\C(=O)O [VICRIVIROC MALEATE]", "%", 21),
]

Below: the item to evaluate.
Task item: Data request, read-out Population Hoechst High Intensity Objects (%), for CC(=O)Nc1cccc2c1c(Sc1ccc(Cl)cc1)c(C)n2CC(=O)O [AZD1981]
Reply: 6
